Target: UniProtKB O75116
Sequence (O75116 whole entry, looked up): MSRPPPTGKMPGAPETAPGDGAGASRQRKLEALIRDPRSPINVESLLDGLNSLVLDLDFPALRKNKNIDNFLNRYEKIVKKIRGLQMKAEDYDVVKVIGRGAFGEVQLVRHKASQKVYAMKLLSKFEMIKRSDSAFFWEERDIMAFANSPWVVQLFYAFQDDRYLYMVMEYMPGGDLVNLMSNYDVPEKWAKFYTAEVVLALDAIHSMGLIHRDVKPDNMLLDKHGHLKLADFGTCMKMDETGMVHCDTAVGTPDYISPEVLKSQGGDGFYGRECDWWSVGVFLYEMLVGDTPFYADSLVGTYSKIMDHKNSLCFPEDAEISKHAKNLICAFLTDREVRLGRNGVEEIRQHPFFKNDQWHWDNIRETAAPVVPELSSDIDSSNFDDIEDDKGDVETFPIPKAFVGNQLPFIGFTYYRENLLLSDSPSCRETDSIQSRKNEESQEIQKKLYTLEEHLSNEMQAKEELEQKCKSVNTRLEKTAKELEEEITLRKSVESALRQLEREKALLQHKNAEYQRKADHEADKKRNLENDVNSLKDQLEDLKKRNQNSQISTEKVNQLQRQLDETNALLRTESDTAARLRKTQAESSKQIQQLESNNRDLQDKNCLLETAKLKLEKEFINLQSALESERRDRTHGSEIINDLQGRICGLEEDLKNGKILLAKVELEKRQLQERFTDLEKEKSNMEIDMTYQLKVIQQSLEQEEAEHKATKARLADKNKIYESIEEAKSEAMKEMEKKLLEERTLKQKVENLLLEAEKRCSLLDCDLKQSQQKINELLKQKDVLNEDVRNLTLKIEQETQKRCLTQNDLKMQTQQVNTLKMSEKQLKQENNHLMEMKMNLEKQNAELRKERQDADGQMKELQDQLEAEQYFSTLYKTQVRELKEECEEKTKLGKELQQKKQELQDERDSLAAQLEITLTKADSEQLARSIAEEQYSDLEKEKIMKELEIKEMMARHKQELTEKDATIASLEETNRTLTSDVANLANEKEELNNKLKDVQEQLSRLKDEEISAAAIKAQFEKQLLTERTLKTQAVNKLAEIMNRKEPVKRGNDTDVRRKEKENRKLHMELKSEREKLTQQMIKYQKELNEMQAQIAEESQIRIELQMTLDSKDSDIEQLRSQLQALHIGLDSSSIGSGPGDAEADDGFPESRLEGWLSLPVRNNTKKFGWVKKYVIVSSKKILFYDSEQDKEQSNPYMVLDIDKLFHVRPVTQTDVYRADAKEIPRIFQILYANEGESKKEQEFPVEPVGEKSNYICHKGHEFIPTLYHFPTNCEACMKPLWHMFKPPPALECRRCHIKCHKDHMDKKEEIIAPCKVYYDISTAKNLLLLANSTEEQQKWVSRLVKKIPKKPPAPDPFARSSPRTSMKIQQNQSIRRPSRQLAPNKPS
Assay: Inhibition of ROCK2 (unknown origin) at 5.5 uM by Caliper Mobility Shift Assay
Assay readout: inhibition

Task: Could you share which inhibition value was measured for COC(Cn1c(SC2CCC(C(=O)O)CC2O)nc(-c2ccc(F)cc2)c1-c1ccnc(NC(C)=O)c1)OC (stereo not given) ?
Result: < 50%

Task: // returns reported inhibition for input CC(=O)Nc1cc(-c2c(-c3ccc(F)cc3)nc(S/C=C\C(=O)O)n2CC2CCCO2)ccn1 (racemic)
Result: < 50%

Task: What inhibition value was documented for this molecule, `CC(=O)Nc1cc(-c2c(-c3ccc(F)cc3)nc(Sc3cccc(I)n3)n2C2CCCCC2)ccn1` ?
Result: < 50%

Task: Look at this molecule and give its reported inhibition. `CC(=O)Nc1cc(-c2c(-c3ccc(F)cc3)nc(S/C=C\C(=O)O)n2C2CCCCC2)ccn1`
Result: < 50%

Task: Consider the molecule shown here: `CC(=O)Nc1cc(-c2c(-c3ccc(F)cc3)nc(S/C=C\C(=O)O)n2C2CC2)ccn1` What is its recorded inhibition?
Result: < 50%
